B1: KRT33B (parent)
chain: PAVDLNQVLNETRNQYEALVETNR

Variants of: B1
assay protocol: protein stability index of a GFP-peptide fusion (GPS, HEK-293T) (PSI 1-6); higher = more stable;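 also: lentivirally expressed fusions sorted by FACS into six bins by GFP to DsRed ratio, PSI derived from sequencing read proportions per bin multiplied by bin number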
conditions used: c terminus: a fixed tail appended
This section presents variants with their documented protein stability index values.
readout type: protein stability index

Y16S    5.12
Q15R    4.37
R24D    5.15
N23L    3.06
L5S    4.78
N14R    2.81
N6P    4.33
E11V    3.88
E17P    4.39
N23Q    4.43
N23A    4.3
V8Y    2.49
V8K    4.56
Y16R    5.09
A18M    3.55
D4A    3.94
R24A    4
V20D    5.39
L5I    3.47
L9Y    4.53
A18V    4.06
E21G    4.22
